System: Astrocyte
Assay: Increase of EAAT2 expression in mouse primary astrocytes at 10 uM after 4 hrs by Western blot analysis relative to control
Type: functional
The source made the active and inactive calls. The calls are words filed in the database; no cut-off is given here.
EXPERIMENTAL_ENDPOINT: fold change (FC)

See these solved cases before continuing.
Fill blank: measured fold change (FC) of the molecule `Fc1cc(F)c(CSc2ccc(-c3ccccn3)nn2)c(F)c1` is ____.
1.6

Returns the measured fold change (FC) for the input molecule. Input: `Clc1ccccc1CSc1ccc(-c2cccnc2)nn1`
1.2

Need fold change (FC) of `Fc1ccc(CSc2ccc(-c3ccccn3)nn2)c(Cl)c1` , thanks.
1.6

May I ask what fold change (FC) has been recorded for `Fc1cccc(F)c1CSc1ccc(-c2ccccn2)nn1` ?
2.1

More entries:
Bench note: what fold change (FC) did `O=S(=O)(Cc1ccccc1Cl)c1ccc(-c2ccccn2)nn1` show?
1.6

Fill in: fold change (FC) of `Fc1ccccc1CSc1ccc(-c2ccccn2)nn1` is ___
2.2

I have this molecule here, `Cc1ccccc1CNC(=O)c1ccc(-c2ccccn2)nn1` , and I need its recorded fold change (FC).
inactive

Look at this molecule and give its reported fold change (FC). `Cc1ccc(COc2ccc(-c3ccccn3)nn2)c(C)c1`
inactive

Which fold change (FC) value is on record for CC(Oc1ccc(-c2ccccn2)nn1)c1c(F)cccc1Cl (configuration not stated) ?
1.6

Recorded fold change (FC) for `Cc1cccc(CSc2ccc(-c3ccccn3)nn2)c1` , please?
2

Field request: fold change (FC) | item: `Fc1ccc(CSc2ccc(-c3ccccn3)nn2)c(F)c1`
2.4

Using the record for `Fc1cccc(Cl)c1CCOc1ccc(-c2ccccn2)nn1` , report its fold change (FC).
2.2

Any idea what its fold change (FC) is? The molecule is `Fc1cccc(Cl)c1CCSc1ccc(-c2ccccn2)nn1`
1.9

Entry `Fc1ccc(COc2ccc(-c3ccccn3)nn2)c(F)c1` : reported fold change (FC) = ?
inactive

Using the record for `Cc1cccc(C)c1CSc1ccc(-c2ccccn2)nn1` , report its fold change (FC).
inactive
